B1: CPEB3 Ribozyme (parent)
chain: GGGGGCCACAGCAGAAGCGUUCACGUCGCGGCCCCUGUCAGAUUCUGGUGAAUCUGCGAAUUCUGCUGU

Variants of: B1
experiment_notes: self-cleavage, relative activity (ratio to wild type); higher = more cleavage; co-transcriptional
recorded_endpoint: self-cleavage

variant_code: C18U C35U
recorded_measurement: 0.687
--
variant_code: G56C A59G
recorded_measurement: 0.705
--
variant_code: G17U A23U
recorded_measurement: 0.714
--
variant_code: G4A U64C
recorded_measurement: 0.696
